Molecular target: T1, potato lectin (Solanum tuberosum, UniProt Q9S8M0)
T1 sequence (Q9S8M0 23-323): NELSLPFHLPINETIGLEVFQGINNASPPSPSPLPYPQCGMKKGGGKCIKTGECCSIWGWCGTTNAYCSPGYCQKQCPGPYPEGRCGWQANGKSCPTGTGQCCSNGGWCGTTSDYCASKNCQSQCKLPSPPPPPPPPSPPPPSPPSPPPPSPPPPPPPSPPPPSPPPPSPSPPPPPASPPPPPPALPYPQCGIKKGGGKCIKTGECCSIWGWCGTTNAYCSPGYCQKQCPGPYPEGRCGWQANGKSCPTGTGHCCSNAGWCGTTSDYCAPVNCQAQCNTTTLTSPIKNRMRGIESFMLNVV
Test: VHH binding to potato lectin in ELISA
Conditions: blank wells; VHH 3 μg/ml

molecule	absorbance at 405 nm
VHH 5G5 (VHH, Hexahistidine-tagged) VHH: QVQLQESGGGLVQPGGSLRLSCAASGFSLRYFGIGWFRQAAGKEREGISCSNVRDGNTYYADSVKGRFTISRDNVRNMLYLQMNNLKPDDTAVYSCATTDCEATTWGTYRGYFGQGTQVTVSS	0.073
VHH 5D4 (VHH, Hexahistidine-tagged) VHH: QVQLQESGGGLVQPGGSLRLSCAASGFDMRRFGIGWFRQVAGKEREGVSCSNVHDGTTYYTNDVKGRFTIVRDNTKNMLYLQMNKLRPEDTAVYSCATTDCEATAWGTYRGYFGQGTQVTVSS	0.072
VHH 7D2 (VHH, Hexahistidine-tagged) VHH: QVQLQESGGGLVQPGRSLKVACAAAGFSLRYYGIGWFRQAPGKEREAVSCTSANDGSTYYRDSVRGRFTISRDDGKNTVYLQMNRLKPEDTAVYYCATTDCDATSWGTWINYYGQGTQVTVSS	0.072
VHH 3E6 (VHH, also called Monovalent VHH 3E6) VHH: QVQLQESGGGLVQPGGTLSLSCAASGFNVRWYGMGWFRQAPGKEREGVACISALQETTAYADSVKGRFTLSRDNPKNTLSLQMNNLQPEDTGVYYCATTDCDDSSRMTYTSYLGQGTQVTVSS	0.067
VHH 5C4 (VHH, Hexahistidine-tagged) VHH: QVQLQESGGGLVQPGGSLRLSCAASGFSLRYFGIGWFRQVAGKEREPVSCSNVRDGNTYYADSVKGRFTISRDNVRNTLYLQMNSLKPEDTAVYSCATTDCEATTWGTYRGYFGQGTQVTVSS	0.071
